- TARGET_DESC: SIRT1 (Homo sapiens, UniProt Q96EB6)
- Sequence (Q96EB6 whole entry): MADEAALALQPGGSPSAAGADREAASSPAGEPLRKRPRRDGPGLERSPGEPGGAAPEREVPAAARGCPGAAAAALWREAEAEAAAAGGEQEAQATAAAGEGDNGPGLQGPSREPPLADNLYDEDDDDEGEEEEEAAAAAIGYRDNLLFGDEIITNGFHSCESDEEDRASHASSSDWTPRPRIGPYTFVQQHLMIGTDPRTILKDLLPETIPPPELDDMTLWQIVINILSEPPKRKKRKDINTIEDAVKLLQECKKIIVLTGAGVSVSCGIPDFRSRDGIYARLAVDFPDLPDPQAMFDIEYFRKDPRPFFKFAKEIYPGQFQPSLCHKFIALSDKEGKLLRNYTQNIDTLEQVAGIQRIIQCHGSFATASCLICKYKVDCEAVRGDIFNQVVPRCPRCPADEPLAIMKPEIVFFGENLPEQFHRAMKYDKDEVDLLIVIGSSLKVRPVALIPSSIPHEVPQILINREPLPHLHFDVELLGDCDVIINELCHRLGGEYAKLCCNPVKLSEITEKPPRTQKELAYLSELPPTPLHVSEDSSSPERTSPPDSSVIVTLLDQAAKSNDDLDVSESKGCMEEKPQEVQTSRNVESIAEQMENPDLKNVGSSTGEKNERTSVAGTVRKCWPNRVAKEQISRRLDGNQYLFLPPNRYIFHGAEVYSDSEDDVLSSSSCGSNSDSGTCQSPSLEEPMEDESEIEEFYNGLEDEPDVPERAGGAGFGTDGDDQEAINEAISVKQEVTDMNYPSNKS
- EXPERIMENT: Mass spectrometry based SIRT1 deacetylase activation assay (acetylated p53-derived peptide substrate)
- Assay type: biochemical
QUANTITY_MEASURED: EC1.5

Sample records with EC1.5:
[
  {
    "COMPOUND": "Cc1cnc(NC(=O)c2cccc3[nH]c(-c4cccc(C(F)(F)F)c4)nc23)s1 [Compound 260]",
    "TARGET_DESC": "SIRT1 (Homo sapiens, UniProt Q96EB6)",
    "RECORDED_MEASUREMENT": "B (EC1.5 1-25 uM)"
  },
  {
    "COMPOUND": "O=C(Nc1nccs1)c1cccc2[nH]c(-c3ccc(OCCN4CCOCC4)cc3)nc12 [Compound 339]",
    "TARGET_DESC": "SIRT1 (Homo sapiens, UniProt Q96EB6)",
    "RECORDED_MEASUREMENT": "A (EC1.5<1.0 uM)"
  },
  {
    "COMPOUND": "O=C(Nc1ccccn1)c1cccc2[nH]c(-c3cc(F)ccc3C(F)(F)F)nc12 [Compound 323]",
    "TARGET_DESC": "SIRT1 (Homo sapiens, UniProt Q96EB6)",
    "RECORDED_MEASUREMENT": "A (EC1.5<1.0 uM)"
  },
  {
    "COMPOUND": "Cc1cc(NC(=O)c2cccc3[nH]c(-c4ccc(Cl)cc4C(F)(F)F)nc23)n(C)n1 [Compound 356]",
    "TARGET_DESC": "SIRT1 (Homo sapiens, UniProt Q96EB6)",
    "RECORDED_MEASUREMENT": "A (EC1.5<1.0 uM)"
  },
  {
    "COMPOUND": "O=C(Nc1nccs1)c1cccc2[nH]c(-c3cccc(CN4CCCC4)c3)nc12 [Compound 351]",
    "TARGET_DESC": "SIRT1 (Homo sapiens, UniProt Q96EB6)",
    "RECORDED_MEASUREMENT": "B (EC1.5 1-25 uM)"
  },
  {
    "COMPOUND": "O=C(Nc1cccc2[nH]c(-c3ccccc3C(F)(F)F)nc12)c1cnccn1 [Compound 366]",
    "TARGET_DESC": "SIRT1 (Homo sapiens, UniProt Q96EB6)",
    "RECORDED_MEASUREMENT": "B (EC1.5 1-25 uM)"
  }
]

Q: Suppose we examine the compound O=C(Nc1cccnn1)c1cccc2[nH]c(-c3cccc(C(F)(F)F)c3)nc12 [Compound 300] ; what EC1.5 value has been reported?
Ans: A (EC1.5<1.0 uM)

Q: Another compound: O=C(Nc1nccs1)c1cccc2[nH]c(-c3cccnc3)nc12 [Compound 227]
Ans: B (EC1.5 1-25 uM)

Q: Note, next up: O=C(Nc1cccc2[nH]c(-c3cccc(C(F)(F)F)c3)nc12)c1ccccn1 [Compound 333]
Ans: B (EC1.5 1-25 uM)

Q: Same read-out for Cc1nc(NC(=O)c2cccc3[nH]c(-c4ccc(Cl)cc4C(F)(F)F)nc23)sc1C [Compound 393] ?
Ans: A (EC1.5<1.0 uM)

Q: Same question, O=C(Nc1nccs1)c1cccc2[nH]c(-c3ccc(N4CCOCC4)nc3)nc12 [Compound 247] this time
Ans: A (EC1.5<1.0 uM)

Q: Try O=C(Nc1cnccn1)c1cccc2[nH]c(-c3ccccc3)nc12 [Compound 201] next.
Ans: B (EC1.5 1-25 uM)

Q: Try the compound Cc1cc(NC(=O)c2cccc3[nH]c(-c4ccc(F)cc4C(F)(F)F)nc23)n(C)n1 [Compound 375]
Ans: A (EC1.5<1.0 uM)
